Hi there, I'd appreciate the recorded PBM binding z-score for every entry that follows.
test system: PXR:RXRa (NR concentration 270 nM, RXRa partner concentration 90 nM); experiment: PBM binding z-score (relative to random genomic background probes); higher = stronger binding; sequences stand for … in GC…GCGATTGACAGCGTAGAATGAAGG
Numbers only.

The cases that follow already have their PBM binding z-score on record.
[
  {
    "monomer_sequence": "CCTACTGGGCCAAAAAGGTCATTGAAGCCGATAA",
    "assayed_target": "PXR:RXRa (NR concentration 270 nM, RXRa partner concentration 90 nM)",
    "observed_result": 4.73
  },
  {
    "monomer_sequence": "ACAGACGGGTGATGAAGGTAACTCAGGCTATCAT",
    "assayed_target": "PXR:RXRa (NR concentration 270 nM, RXRa partner concentration 90 nM)",
    "observed_result": -0.323
  }
]

For each entry beneath this line, provide reported PBM binding z-score.
1. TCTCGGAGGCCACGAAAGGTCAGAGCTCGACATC
2. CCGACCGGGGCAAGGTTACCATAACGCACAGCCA
3. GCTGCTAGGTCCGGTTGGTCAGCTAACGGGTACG
4. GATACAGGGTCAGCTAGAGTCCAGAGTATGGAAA
5. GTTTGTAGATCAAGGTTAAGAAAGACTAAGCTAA
6. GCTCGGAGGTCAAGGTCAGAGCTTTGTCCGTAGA
7. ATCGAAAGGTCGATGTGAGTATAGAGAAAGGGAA

# output
1. 4.58
2. 0.376
3. -0.574
4. 4.14
5. 0.822
6. 5.61
7. 1.77

For each entry beneath this line, provide reported PBM binding z-score.
1. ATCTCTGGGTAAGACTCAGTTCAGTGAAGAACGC
2. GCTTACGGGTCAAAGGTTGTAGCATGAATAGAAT
3. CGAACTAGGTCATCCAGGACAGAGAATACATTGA
4. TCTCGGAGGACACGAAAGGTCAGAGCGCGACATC
5. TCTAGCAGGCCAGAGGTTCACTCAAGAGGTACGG
6. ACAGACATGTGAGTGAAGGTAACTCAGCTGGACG
7. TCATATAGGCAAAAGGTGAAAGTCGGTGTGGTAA
8. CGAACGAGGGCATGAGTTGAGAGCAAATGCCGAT

# output
1: 1.16; 2: 5.04; 3: 1.97; 4: 4.27; 5: 0.274; 6: -0.554; 7: 1.27; 8: 0.363

For each entry beneath this line, provide reported PBM binding z-score.
1. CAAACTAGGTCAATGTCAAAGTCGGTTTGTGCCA
2. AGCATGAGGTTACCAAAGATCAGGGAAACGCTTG
3. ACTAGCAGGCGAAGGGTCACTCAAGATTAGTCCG
4. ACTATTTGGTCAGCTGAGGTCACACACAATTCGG
5. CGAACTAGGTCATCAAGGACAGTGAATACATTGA
6. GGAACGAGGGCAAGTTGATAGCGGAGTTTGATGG

# output
1.39
1.38
2.32
5.26
2
0.392
